target: T1, EsCas13d, nuclease-dead (Eubacterium siraeum, UniProt B0MS50, R295A;H300A;R849A;H854A)
T1 sequence: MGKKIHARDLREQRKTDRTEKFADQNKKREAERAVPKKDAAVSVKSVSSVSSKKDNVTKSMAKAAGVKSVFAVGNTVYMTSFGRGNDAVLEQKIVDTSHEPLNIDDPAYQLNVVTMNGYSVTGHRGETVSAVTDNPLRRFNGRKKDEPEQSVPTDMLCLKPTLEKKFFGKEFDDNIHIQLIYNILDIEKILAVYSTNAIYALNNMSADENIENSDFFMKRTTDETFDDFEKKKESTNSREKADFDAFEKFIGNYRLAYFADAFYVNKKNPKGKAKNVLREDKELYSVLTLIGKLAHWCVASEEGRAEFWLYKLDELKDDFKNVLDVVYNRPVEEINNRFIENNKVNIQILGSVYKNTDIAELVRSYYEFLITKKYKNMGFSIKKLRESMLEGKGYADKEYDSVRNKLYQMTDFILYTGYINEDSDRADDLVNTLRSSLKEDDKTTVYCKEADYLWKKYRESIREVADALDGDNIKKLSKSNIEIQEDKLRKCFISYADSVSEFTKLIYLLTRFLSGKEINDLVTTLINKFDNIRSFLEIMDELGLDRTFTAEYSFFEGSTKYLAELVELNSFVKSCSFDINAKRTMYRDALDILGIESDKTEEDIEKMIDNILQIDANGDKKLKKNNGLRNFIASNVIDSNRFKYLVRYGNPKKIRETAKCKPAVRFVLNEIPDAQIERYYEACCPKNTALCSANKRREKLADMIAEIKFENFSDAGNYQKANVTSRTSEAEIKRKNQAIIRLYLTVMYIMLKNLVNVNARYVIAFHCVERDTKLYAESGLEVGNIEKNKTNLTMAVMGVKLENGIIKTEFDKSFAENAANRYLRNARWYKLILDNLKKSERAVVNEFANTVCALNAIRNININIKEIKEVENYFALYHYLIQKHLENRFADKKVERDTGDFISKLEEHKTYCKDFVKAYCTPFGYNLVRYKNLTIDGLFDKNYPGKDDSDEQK
runDescription: crRNA (strand 1, pre-loaded); Mg2+; 40 mM Tris-HCl pH 7.5, 150 mM NaCl, 6 mM MgCl2, 1 mM DTT, 0.1% Tween-20, 0.2 mg/ml BSA; 25 C; 10 min per concentration, then washed
reportedConditions: tags: His6-TwinStrep-SUMO cleaved; N-terminal SNAP kept (SNAP-Surface 488); label: 3' end held by stalled T7 RNA polymerase
pKd: −log10 of the molar value.
Listed here: items and their measured pKd.
measuredQuantity: pKd

>>> numericresult("target 1 insU 3' of 20,insA 3' of 3 (mixed) RNA 1: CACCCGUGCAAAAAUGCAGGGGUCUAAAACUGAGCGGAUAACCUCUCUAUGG RNA 2: GGGAAUGGAUCCACAUCUACGAAUUCGUACCAUUAGAGAGGUUAUCCGCUACACCGAGAUCGGAAGAGCACACGU")
7.95
>>> numericresult("target 1 MT 5'PFS GCG 3'PFS CUG (mixed) RNA 1: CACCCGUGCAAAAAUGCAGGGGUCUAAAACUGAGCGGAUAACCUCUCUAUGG RNA 2: GGGAAUGGAUCCACAUCUACGAAUUCGCGCCAUAGAGAGGUUAUCCGCUCACUGAGAUCGGAAGAGCACACGU")
7.97
>>> numericresult("target 2 MT 5'PFS CCU 3'PFS UAG (mixed) RNA 1: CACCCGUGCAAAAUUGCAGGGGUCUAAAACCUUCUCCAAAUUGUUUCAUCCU RNA 2: GGGAAUGGAUCCACAUCUACGAAUUCCCUAGGAUGAAACAAUUUGGAGAAGUAGAGAUCGGAAGAGCACACGU")
8.94
>>> numericresult("target 2 MT 5'PFS GAG 3'PFS CAA (mixed) RNA 1: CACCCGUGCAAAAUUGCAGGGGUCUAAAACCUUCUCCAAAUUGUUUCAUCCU RNA 2: GGGAAUGGAUCCACAUCUACGAAUUCGAGAGGAUGAAACAAUUUGGAGAAGCAAAGAUCGGAAGAGCACACGU")
8.31
>>> numericresult("target 2 MT 5'PFS AAU 3'PFS AAU (mixed) RNA 1: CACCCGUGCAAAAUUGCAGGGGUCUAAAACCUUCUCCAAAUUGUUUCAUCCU RNA 2: GGGAAUGGAUCCACAUCUACGAAUUCAAUAGGAUGAAACAAUUUGGAGAAGAAUAGAUCGGAAGAGCACACGU")
8.39
>>> numericresult("target 1 insC 3' of 20,insG 3' of 7 (mixed) RNA 1: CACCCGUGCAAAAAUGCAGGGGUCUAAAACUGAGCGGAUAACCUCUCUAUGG RNA 2: GGGAAUGGAUCCACAUCUACGAAUUCGUACCACUAGAGAGGUUAUCGCGCUCACCGAGAUCGGAAGAGCACACGU")
8.06
>>> numericresult("target 2 MT 5'PFS UUG 3'PFS UGU (mixed) RNA 1: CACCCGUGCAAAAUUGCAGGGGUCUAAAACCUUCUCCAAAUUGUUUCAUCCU RNA 2: GGGAAUGGAUCCACAUCUACGAAUUCUUGAGGAUGAAACAAUUUGGAGAAGUGUAGAUCGGAAGAGCACACGU")
7.77
